The measurements presented in this section are drawn from patent US20250243279A1.

Quick reference for pKd among some binders
Molecular target: T1, MICA (human, UniProt Q29983 24-383)
T1 chain: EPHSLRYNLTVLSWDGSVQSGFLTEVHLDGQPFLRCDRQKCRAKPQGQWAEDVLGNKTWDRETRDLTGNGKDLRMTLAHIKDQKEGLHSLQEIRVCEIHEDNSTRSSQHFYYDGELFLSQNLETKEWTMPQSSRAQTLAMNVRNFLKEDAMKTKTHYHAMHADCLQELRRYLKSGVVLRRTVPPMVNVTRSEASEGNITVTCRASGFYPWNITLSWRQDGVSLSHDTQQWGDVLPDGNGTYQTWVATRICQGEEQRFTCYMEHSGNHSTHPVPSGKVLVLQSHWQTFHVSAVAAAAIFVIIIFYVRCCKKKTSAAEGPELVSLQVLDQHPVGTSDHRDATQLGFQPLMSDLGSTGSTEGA
Experiment: Carterra LSA SPR
Notebook: values listed as pKd are -log10 of the concentration (mol/L).

binder | pKd
2E12 (antibody, V domains shown) VH: QVQLQQSGAELVRPGTSVKVSCKASGYAFTNYLIEWVKQRPGQGLEWIGGINPGSGSTNYNEKFKGKATLTADKSSSTAYMQLSTLTFDDSAVYFCARLGGNYVDYWGQGTTLTVSS VL: DIQMTQSPASLSASVGETVTITCRASGNIHNYLAWYQQKQGKSPQLLVYNAKTLADGVPSRFSGSGSGTQYSLKINSLQPEDFGSYYCQHFWSTPRTFGGGTKLEIK | 7.78

Lab note: next binder to report on.
Incoming: Query (binder): 2F7 (antibody, V domains shown) VH: QVHLKQSGAELVRPGASVKLSCKASGYTFTDYYIDWMNQRPGQGLEWIARIYPGSGNSYYNEKFKGKATLTAEKSASTAHMQLSSLTSEDSAVYFCAREGPTGVAPHWYFDVWGTGTTVTVSS VL: DIVMSQSPSSLSSYLGDRVTISCRASQDIGNYLNWYQQKPDGTVKLLIYSTSRLHSGVPSRFSGSGSGTDYSLTISNLEQEDVATYFCQQGNTLPWTFGGGTKLEIK ; field requested: pKd
Outgoing: 7.37
